A collection of compounds and their measured pIC50
Tested on: K562 (chronic myelogenous leukaemia)
Assay: Effect of compounds on tumor cell lines (assay of Latham et al.), K562
Assay type: cell-based
Conditions: Table 1; K562 cells, examined 96 hours after treatment, 1 μM to 100 μM in DMSO; read-out: K 562 potency (IC50)
pIC50: −log10 of the molar value.

| COMPOUND | pIC50 |
| --- | --- |
| Cc1ccc(SC(=Cc2c[nH]c3ccc(Cl)cc23)C(=O)c2ccc(Br)cc2)cc1 [Example 107] | 5.00 to 6.00 |
| Cc1ccc(SC(=Cc2ccc(O)c([N+](=O)[O-])c2)C(=O)c2ccc(Cl)cc2)cc1 [Example 96] | 4.30 to 4.60 |
| CN(C)c1ccc(C=C(Sc2ccccc2Br)C(=O)c2ccc(Br)cc2)cc1 [Example 12] | < 4.00 |
| Cc1ccc(SC(=Cc2ccc(F)cc2F)C(=O)c2ccc(Br)cc2)cc1 [Example 73] | < 4.00 |

----------
Tested on: DU145 (prostate cancer)
Assay: Effect of compounds on tumor cell lines (assay of Latham et al.), DU145
Type: cell-based
Conditions: DU145 cells, 96 hours after treatment, 1 μM to 100 μM; read-out: DU 145 potency (IC50)

| MOLECULE | IC50 |
| --- | --- |
| O=C(O)c1ccc(C(=O)C(=Cc2ccc(Br)c([N+](=O)[O-])c2)SCc2ccccc2Cl)cc1 [Example 302] | 1 to 10 µM |
| CCN(CC)CCOc1ccc(C(=O)/C(=C\c2ccc(F)c([N+](=O)[O-])c2)SCc2ccc(F)cc2)cc1 [Example 338] | 1 to 10 µM |
| Cc1ccc(CSC(=Cc2cc(Cl)cc(Cl)c2)C(=O)c2ccc(Cl)cc2)cc1 [Example 281] | 10 to 25 µM |
| Cc1ccc(CS/C(=C/c2ccc(F)c([N+](=O)[O-])c2)C(=O)c2ccc(Cl)c([N+](=O)[O-])c2)cc1 [Example 349] | 1 to 10 µM |
| COc1ccccc1C=C(SCc1ccccc1F)C(=O)c1ccc(Cl)cc1 [Example 133] | 10 to 25 µM |
| Cc1ccc(C)c(C=C(SCc2ccc(Cl)cc2)C(=O)c2ccc(Cl)cc2)c1 [Example 197] | 10 to 25 µM |
| O=C(/C(=C\c1ccc(O)c([N+](=O)[O-])c1)SCc1ccc(Br)cc1)c1ccc([N+](=O)[O-])cc1 [Example 184] | 10 to 25 µM |
| Cc1ccc(C=C(SCc2ccc(Cl)cc2Cl)C(=O)c2ccc(Cl)cc2)s1 [Example 124] | 50 to 100 µM |
| Cc1ccsc1C=C(SCc1ccc(Cl)cc1Cl)C(=O)c1ccc(Cl)cc1 [Example 119] | 10 to 25 µM |
| O=C(C(=Cc1ccc(O)cc1)SCc1ccc(Cl)cc1)c1ccc(Cl)cc1 [Example 222] | 10 to 25 µM |
| O=C(C(=Cc1cccc(Cl)c1Cl)SCc1ccc(Cl)cc1)c1ccc(Cl)cc1 [Example 191] | 10 to 25 µM |
| N#Cc1ccc(C(=O)/C(=C\c2ccc(O)c([N+](=O)[O-])c2)SCc2ccc(Br)cc2)cc1 [Example 182] | 10 to 25 µM |
| CC1=CC(=O)C(C)=C(C(C)(C)CC(=O)Oc2cc(C=C(SCc3ccc(Br)cc3)C(=O)c3ccc(Br)cc3)ccc2[N+](=O)[O-])C1=O [Example 307] | 1 to 10 µM |
| O=C(O)c1ccc(C(=O)C(=Cc2ccc(Cl)c([N+](=O)[O-])c2)SCc2ccc(Cl)cc2)cc1 [Example 216] | 1 to 10 µM |
| O=C(/C(=C\c1ccc([N+](=O)[O-])c(O)c1)SCc1ccc(Br)cc1)c1cc(Cl)ccc1O [Example 161] | 10 to 25 µM |
| O=C(C(=Cc1ccc(F)cc1C(F)(F)F)SCc1ccc(F)cc1)c1ccc(Br)cc1 [Example 260] | 10 to 25 µM |
